Compiled notes: published pIC50 values involving Autotaxin (Homo sapiens).
pIC50: −log10 of the molar value.

O=C(c1cnc(NCc2cc(OCC3CC3)cc(OC(F)(F)F)c2)nc1)N1CCC12COC2
> 7.00
CC(C)[C@@H](NC(=O)c1cc(C(F)(F)F)ccc1F)C(=O)N1CCC2(CC1)C(=O)N(C)CN2c1ccc(C(=O)O)c(Cl)c1
> 6.30
Cc1c(Sc2cccc(C(=O)O)c2)c2ccc(Cl)c(F)c2n1CC(=O)N1CC2(CCC2)c2c(F)cccc21
≥ 6.30
CCCC(NC(=O)CN1C[C@H](C)n2nc(-c3ccc(Cl)cc3)cc2C1=O)C(=O)O (some centres unmarked)
6.00 to 7.00
O=C(O)C1CCCN(C(=O)c2ccc3c(C(F)(F)F)c(O[C@H]4CC[C@@H](C(F)(F)F)CC4)ccc3c2)CC1 (relative stereo)
≥ 6.30
CC1CCN1C(=O)c1cnc(NC2Cc3ccc(Cl)cc3C2)nc1 (centres unmarked)
> 7.00
CCOc1cc(CNc2ncc(C(=O)N3CCC3C(C)(C)O)cn2)cc(OC(F)(F)F)c1 (centres unmarked)
> 7.00

In the following, a different compound is considered.
[ask] Consider the compound CC(c1ccc2c(C(F)F)c(O[C@H]3CC[C@@H](C)CC3)ccc2c1)N1CC(CC(=O)O)C1 (relative stereo) and give its measured pIC50.
[reply] ≥ 7.00

----------
pIC50: −log10 of the molar value.
Compiled notes: published pIC50 values involving Autotaxin (Homo sapiens).

[ask] Param readout= pIC50; system= Autotaxin (Homo sapiens); entry= "C[C@H]1CC[C@@H](Oc2ccc3cc(CN4CC(CC(=O)O)C4)ccc3c2C(F)F)CC1" ; returns value.
[reply] ≥ 7.00

[ask] Param readout= pIC50; system= Autotaxin (Homo sapiens); entry= CCC(c1ccc2c(C(F)F)c(O[C@H]3CC[C@@H](C)CC3)ccc2c1)N1CCC(C(=O)O)CC1 (relative stereo) ; returns value.
[reply] ≥ 7.00

[ask] Param readout= pIC50; system= Autotaxin (Homo sapiens); entry= "COc1ccc(N2CN(C)C(=O)C23CCN(C(=O)[C@H](NC(=O)c2cccc(C)c2)C(C)C)CC3)cc1" ; returns value.
[reply] > 6.30

[ask] Param readout= pIC50; system= Autotaxin (Homo sapiens); entry= CN1C(=O)C2Cc3c(n(Cc4ccc(F)cc4)c4ccccc34)CN2C1=O (racemic) ; returns value.
[reply] > 6.30

[ask] Param readout= pIC50; system= Autotaxin (Homo sapiens); entry= "CC(=O)Nc1cc(OC(F)(F)F)ccc1-c1cc2n(n1)[C@@H](C)CN(Cc1cccc(C(=O)O)c1)C2=O" ; returns value.
[reply] > 8.00

[ask] Param readout= pIC50; system= Autotaxin (Homo sapiens); entry= CCCCCC1CN(CC(=O)Nc2ccccc2C(=O)O)C(=O)c2cc(-c3ccc(Cl)cc3)nn21 (centres unmarked) ; returns value.
[reply] 6.00 to 7.00

[ask] Param readout= pIC50; system= Autotaxin (Homo sapiens); entry= "CCn1cc(-n2c(Cl)c(Sc3cccc(CC(=O)O)c3F)c3ccc(Cl)c(F)c32)cn1" ; returns value.
[reply] > 6.30

----------
Compiled notes: published IC50 values involving UniProtKB Q13822.

Observe how each entry below is paired with its result.
O=C(O)C12CCC(NCc3ccc4c(C(F)(F)F)c(OC5CCC(C(F)(F)F)CC5)ccc4c3)(CC1)CC2 (stereo not drawn)
≤ 500 nM
CCN1CC2(CCN2C(=O)c2cnc(NCc3cc(OC(F)(F)F)cc(C4CC4)c3)nc2)C1
< 100 nM

In the following, a different compound is considered.
[ask] Param readout= IC50; system= UniProtKB Q13822; entry= CCCCCC1CN(CC(=O)N2CCC[C@@H](C)C2)C(=O)c2cc(-c3ccc(Cl)cc3)nn21 (stereo partly drawn) ; returns value.
[reply] 100 to 1000 nM
